Assay: HA binding assay (pulldown of fluorescein-labeled peptides, Langmuir isotherm fit)
Details: fit of Langmuir equation; fluorescein-labeled peptide 0-100 μM, 0.3 mg HA nanocrystals
Quick reference: KA (binding affinity for HA) of the listed items.
experimentalReadout: KA (binding affinity for HA)

substance	recordedValue
NSS NSS NSS NSS (NSSNSSNSSNSS; synthetic calcium-binding peptide 4NSS)	16,000 ± 4,000 M^−1
DSS DSS DSSDSS DSS DSS DSS DSS (DSSDSSDSSDSSDSSDSSDSSDSS; synthetic calcium-binding peptide 8DSS)	290,000 ± 70,000 M^−1
5DSS: peptide of five Asp-Ser-Ser repeats, SEQ ID NO:22 (DSSDSSDSSDSSDSS; synthetic calcium-binding peptide 5DSS, (DSS)-5)	148,000 ± 14,000 M^−1

* * *

Assay: Tissue specific binding of labeled peptides to sections of human teeth (CLSM)
Conditions: 5(6)-carboxyfluorescein-labeled peptide, ten minutes, identical settings
experimentalReadout: level of binding (staining) to tooth surfaces

>>> df
                                  substance            recordedvalue
0  ASS ASS ASS ASS ASS ASS ASS ASS (ASSASSASSASSASSASSASSASS; synthetic calcium-binding peptide 8ASS)  lower levels of binding
1  NSS NSS NSS NSS (NSSNSSNSSNSS; synthetic calcium-binding peptide 4NSS)  lower levels of binding
2  DTT DTT DTT DTT (DTTDTTDTTDTT; synthetic calcium-binding peptide 4DTT)   sharply reduced levels
3  ETT ETT ETT ETT (ETTETTETTETT; synthetic calcium-binding peptide 4ETT)   sharply reduced levels
4  ESS ESS ESS ESS (ESSESSESSESS; synthetic calcium-binding peptide 4ESS)  lower levels of binding

* * *

Quick reference: Nmax (maximum monolayer surface concentration) of the listed items.
Assay: HA binding assay (pulldown of fluorescein-labeled peptides, Langmuir isotherm fit)
Details: fit of Langmuir equation
experimentalReadout: Nmax (maximum monolayer surface concentration)

substance	recordedValue
DSS DSS DSSDSS DSS DSS DSS DSS (DSSDSSDSSDSSDSSDSSDSSDSS; synthetic calcium-binding peptide 8DSS)	8.2 × 10^−8 ± 6 × 10^−9 mol/m^2
DTT DTT DTT DTT (DTTDTTDTTDTT; synthetic calcium-binding peptide 4DTT)	1.3 × 10^−8 ± 1 × 10^−9 mol/m^2
NSS NSS NSS NSS (NSSNSSNSSNSS; synthetic calcium-binding peptide 4NSS)	3.0 × 10^−8 ± 1 × 10^−9 mol/m^2
NTT NTT NTT NTT (NTTNTTNTTNTT; synthetic calcium-binding peptide 4NTT)	5.8 × 10^−8 ± 2 × 10^−8 mol/m^2
DAA DAA DAA DAA DAA DAA DAA DAA (DAADAADAADAADAADAADAADAA; synthetic calcium-binding peptide 8DAA)	6.0 × 10^−8 ± 6 × 10^−9 mol/m^2
DSS DSS (DSSDSS; synthetic calcium-binding peptide 2DSS)	2 × 10^−8 ± 5 × 10^−9 mol/m^2
DSS DSS DSS DSS (DSSDSSDSSDSS; synthetic calcium-binding peptide 4DSS)	5.8 × 10^−8 ± 6 × 10^−9 mol/m^2
5DSS: peptide of five Asp-Ser-Ser repeats, SEQ ID NO:22 (DSSDSSDSSDSSDSS; synthetic calcium-binding peptide 5DSS, (DSS)-5)	9.2 × 10^−8 ± 2 × 10^−9 mol/m^2
DSS DSS DSS DSS DSS DSS (DSSDSSDSSDSSDSSDSS; synthetic calcium-binding peptide 6DSS)	1.3 × 10^−7 ± 3 × 10^−9 mol/m^2
ESS ESS ESS ESS (ESSESSESSESS; synthetic calcium-binding peptide 4ESS)	4.6 × 10^−8 ± 4 × 10^−9 mol/m^2
ETT ETT ETT ETT (ETTETTETTETT; synthetic calcium-binding peptide 4ETT)	8.8 × 10^−8 ± 9 × 10^−9 mol/m^2

Recorded values, source patent US8889156B2.
